# PROTOCOL DETAILS: In vivo pharmacokinetic experiment in mice
# STUDY CONDITIONS: mouse, plasma; male NMRI mice; 5 mg/kg PO

| STRUCTURE SMILES STRING | QUANTITY UNIT | Tmax |
| --- | --- | --- |
| C[C@H](NC(=O)C(=O)Nc1ccccc1C(C)(C)C)C(=O)N[C@@H](CC(=O)O)C(=O)COc1c(F)c(F)cc(F)c1F | min | 30 |

----------
# PROTOCOL DETAILS: In vivo pharmacokinetic experiment in mice
# STUDY CONDITIONS: mouse, plasma; male NMRI mice; 1 mg/kg IV, 5 mg/kg PO; read-out: Beta t1/2 (converted)
VALUE KIND: half-life (min)

| STRUCTURE SMILES STRING | NUMBER |
| --- | --- |
| C[C@H](NC(=O)C(=O)Nc1ccccc1C(C)(C)C)C(=O)N[C@@H](CC(=O)O)C(=O)COc1c(F)c(F)cc(F)c1F | 54 |

----------
# PROTOCOL DETAILS: In vivo pharmacokinetic experiment in mice
# STUDY CONDITIONS: mouse, plasma; male NMRI mice; 5 mg/kg PO

| COMPOUND | Cmax |
| --- | --- |
| C[C@H](NC(=O)C(=O)Nc1ccccc1C(C)(C)C)C(=O)N[C@@H](CC(=O)O)C(=O)COc1c(F)c(F)cc(F)c1F [IDN6556] | 113 ng/mL |

Recorded values, source paper PMC3519673.
